Target System: Amyloid-beta precursor protein (Homo sapiens)
Assay Details: Disaggregation of aggregated human amyloid beta (1 to 42) preformed fibrils in human SH-SY5Y cells assessed as decrease the number of foci to basal levels at 50 uM for 12 hrs by confocal microscopy relative to control
Format: cell-based
Active and inactive are the calls of the source. The calls are words filed in the database; no cut-off is given here.
Possible outcomes: active, inactive

In [3]: df
Out[3]:
                           structure_string  class_name
0  CC(C)CCC[C@@H](C)[C@H]1CC[C@H]2[C@@H]3CC=C4c5c(nc6ccc(Cl)cc6c5-c5ccccc5Cl)CC[C@]4(C)[C@H]3CC[C@]12C      active
1  CC(C)CCC[C@@H](C)[C@H]1CC[C@H]2[C@@H]3CC=C4c5c(nc6ccccc6c5-c5ccccc5)CC[C@]4(C)[C@H]3CC[C@]12C      active
2  CC(C)CCC[C@@H](C)[C@H]1CC[C@H]2[C@@H]3CC=C4c5c(nc6ccc(Cl)cc6c5-c5ccccc5)CC[C@]4(C)[C@H]3CC[C@]12C    inactive
3  Cc1c2c(nc3ccccc13)CC[C@@]1(C)C2=CC[C@H]2[C@@H]3CC[C@H]([C@H](C)CCCC(C)C)[C@@]3(C)CC[C@@H]21      active

###

Target System: Amyloid-beta precursor protein (Homo sapiens)
Assay Details: Inhibition of amyloid beta (1 to 42) (unknown origin) aggregation assessed as reduction in fluorescence intensity at 20 uM measured upto 30 h by thioflavin-T fluorescence assay
Activity calls are given as the source filed them. The rule behind the calls is not given here.
Observation Type: inhibition

                           structure_string    result
0  CC(C)CCC[C@@H](C)[C@H]1CC[C@H]2[C@@H]3CC=C4c5c(nc6ccccc6c5-c5ccccc5)CC[C@]4(C)[C@H]3CC[C@]12C  inactive
1  CC(C)CCC[C@@H](C)[C@H]1CC[C@H]2[C@@H]3CC=C4c5c(nc6ccc(Cl)cc6c5-c5ccccc5)CC[C@]4(C)[C@H]3CC[C@]12C  inactive
2  CC(C)CCC[C@@H](C)[C@H]1CC[C@H]2[C@@H]3CC=C4c5c(nc6ccc(Cl)cc6c5-c5ccccc5Cl)CC[C@]4(C)[C@H]3CC[C@]12C    Active
3  Cc1c2c(nc3ccccc13)CC[C@@]1(C)C2=CC[C@H]2[C@@H]3CC[C@H]([C@H](C)CCCC(C)C)[C@@]3(C)CC[C@@H]21    Active

###

Target System: Amyloid-beta precursor protein (Homo sapiens)
Assay Details: Disaggregation of aggregated huamn amyloid beta (1 to 42) fibrils in human SH-SY5Y cells assessed as decrease the area of foci to basal levels at 50 uM for 12 hour by confocal microscopy relative to control
Format: cell-based
Calls of active or inactive are those of the source. No cut-off for these calls is given here.
Observation Type: Activity

>>> df
                           structure_string                             target_system    result
0  CC(C)CCC[C@@H](C)[C@H]1CC[C@H]2[C@@H]3CC=C4c5c(nc6ccc(Cl)cc6c5-c5ccccc5Cl)CC[C@]4(C)[C@H]3CC[C@]12C  Amyloid-beta precursor protein (Homo sapiens)  inactive
1  CC(C)CCC[C@@H](C)[C@H]1CC[C@H]2[C@@H]3CC=C4c5c(nc6ccccc6c5-c5ccccc5)CC[C@]4(C)[C@H]3CC[C@]12C  Amyloid-beta precursor protein (Homo sapiens)  inactive
2  Cc1c2c(nc3ccccc13)CC[C@@]1(C)C2=CC[C@H]2[C@@H]3CC[C@H]([C@H](C)CCCC(C)C)[C@@]3(C)CC[C@@H]21  Amyloid-beta precursor protein (Homo sapiens)  inactive

Where do these numbers come from? They come from ChEMBL document CHEMBL5036371.
